Biological target: Abl T315I (Homo sapiens (Human), UniProt P00519, T315I)
Test: Reaction Biology Corp. kinase assay, mutated Abl T315I
Format: biochemical
Conditions: 10 μM; Reaction Biology Corp.; read-out: % inhibition of kinase activity, Abl T315I (category)
Reported inhibition at 10 µM by item:

Consider the worked cases shown below.
Quick one: inhibition at 10 µM of COC(=O)c1cc2cc(NC(=O)c3c(C)cccc3Cl)cnc2[nH]1 ? < 10%

Quick one: inhibition at 10 µM of COC(=O)c1cc2cc(NCc3ccccc3OC(F)(F)F)cnc2[nH]1 ? < 10%

Quick one: inhibition at 10 µM of COC(=O)c1cc2cc(NC(=O)c3ccccc3C(F)(F)F)cnc2[nH]1 ? < 10%

Quick one: inhibition at 10 µM of COC(=O)c1cc2cc(NC(=O)c3cccc(Br)c3)cnc2[nH]1 ? 10 to 50%

New cases:
Quick one: inhibition at 10 µM of COC(=O)c1cc2cc(NCc3nccs3)cnc2[nH]1 ? 10 to 50%

Quick one: inhibition at 10 µM of COC(=O)c1cc2cc(NCc3ccccc3OC)cnc2[nH]1 ? < 10%

Quick one: inhibition at 10 µM of COC(=O)c1cc2cc(NC(=O)c3ccccc3C)cnc2[nH]1 ? < 10%
